Let's go through some Ki measurements on UniProtKB P18825 together.
Sequence (P18825 whole entry): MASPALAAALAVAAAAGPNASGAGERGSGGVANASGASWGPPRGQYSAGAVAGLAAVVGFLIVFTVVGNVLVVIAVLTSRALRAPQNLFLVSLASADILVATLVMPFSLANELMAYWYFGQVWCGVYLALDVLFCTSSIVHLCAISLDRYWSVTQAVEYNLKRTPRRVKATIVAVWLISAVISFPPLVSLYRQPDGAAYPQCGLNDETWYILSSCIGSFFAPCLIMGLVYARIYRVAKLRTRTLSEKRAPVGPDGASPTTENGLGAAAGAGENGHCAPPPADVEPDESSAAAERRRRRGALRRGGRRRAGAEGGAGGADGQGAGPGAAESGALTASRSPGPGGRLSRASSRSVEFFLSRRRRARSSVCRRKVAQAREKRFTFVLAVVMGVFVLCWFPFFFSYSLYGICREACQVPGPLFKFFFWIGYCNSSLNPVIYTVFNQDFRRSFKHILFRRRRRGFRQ

[
  {
    "chemical smiles": "COc1ccc2c(c1)[nH]c1c(C)nccc12",
    "Ki / nM": 810
  },
  {
    "chemical smiles": "COc1ccc2c3c([nH]c2c1)CNCC3",
    "Ki / nM": 1740
  }
]

====

system tested: 5-hydroxytryptamine receptor 2A (Rattus norvegicus, UniProt P14842)
Sequence (P14842 whole entry): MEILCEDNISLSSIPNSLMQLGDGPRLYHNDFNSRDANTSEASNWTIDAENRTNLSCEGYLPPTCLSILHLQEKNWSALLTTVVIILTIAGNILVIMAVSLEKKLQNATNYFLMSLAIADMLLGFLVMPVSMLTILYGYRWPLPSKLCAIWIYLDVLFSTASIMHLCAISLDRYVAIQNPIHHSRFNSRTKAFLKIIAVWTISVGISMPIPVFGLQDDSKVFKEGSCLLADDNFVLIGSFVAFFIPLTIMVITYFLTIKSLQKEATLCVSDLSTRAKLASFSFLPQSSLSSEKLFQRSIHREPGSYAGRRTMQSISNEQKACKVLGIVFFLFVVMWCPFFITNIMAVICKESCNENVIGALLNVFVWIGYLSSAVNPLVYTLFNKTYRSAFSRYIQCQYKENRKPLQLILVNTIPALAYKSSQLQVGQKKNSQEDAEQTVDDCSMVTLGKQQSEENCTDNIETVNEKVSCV
assay: Binding affinity for rat 5-hydroxytryptamine 2A receptor using [3H]DOB
Output schema: class label derived from Ki. Mapping: LOW: < 100 nM; MEDIUM: ≥ 100 nM and < 1000 nM; HIGH: ≥ 1000 nM

[
  {
    "compound": "Brc1cccc2c3c([nH]c12)CNCC3",
    "system tested": "5-hydroxytryptamine receptor 2A (Rattus norvegicus, UniProt P14842)",
    "category label": "LOW"
  },
  {
    "compound": "Brc1cccc2[nH]c3c(c12)CCNC3",
    "system tested": "5-hydroxytryptamine receptor 2A (Rattus norvegicus, UniProt P14842)",
    "category label": "LOW"
  },
  {
    "compound": "COc1ccc2c3c([nH]c2c1)C=NCC3 [CGS-19281A]",
    "system tested": "5-hydroxytryptamine receptor 2A (Rattus norvegicus, UniProt P14842)",
    "category label": "HIGH"
  },
  {
    "compound": "COc1ccc2c3c([nH]c2c1)CNCC3",
    "system tested": "5-hydroxytryptamine receptor 2A (Rattus norvegicus, UniProt P14842)",
    "category label": "HIGH"
  },
  {
    "compound": "COc1cccc2c3c([nH]c12)CNCC3",
    "system tested": "5-hydroxytryptamine receptor 2A (Rattus norvegicus, UniProt P14842)",
    "category label": "MEDIUM"
  },
  {
    "compound": "c1ccc2c3c([nH]c2c1)CNCC3",
    "system tested": "5-hydroxytryptamine receptor 2A (Rattus norvegicus, UniProt P14842)",
    "category label": "HIGH"
  },
  {
    "compound": "COc1cccc2[nH]c3c(c12)CCNC3",
    "system tested": "5-hydroxytryptamine receptor 2A (Rattus norvegicus, UniProt P14842)",
    "category label": "LOW"
  },
  {
    "compound": "Brc1cccc2c3c([nH]c12)C=NCC3",
    "system tested": "5-hydroxytryptamine receptor 2A (Rattus norvegicus, UniProt P14842)",
    "category label": "MEDIUM"
  },
  {
    "compound": "COc1cccc2[nH]c3c(c12)CCN=C3",
    "system tested": "5-hydroxytryptamine receptor 2A (Rattus norvegicus, UniProt P14842)",
    "category label": "MEDIUM"
  },
  {
    "compound": "COc1ccc2[nH]c3c(c2c1)CCNC3",
    "system tested": "5-hydroxytryptamine receptor 2A (Rattus norvegicus, UniProt P14842)",
    "category label": "HIGH"
  },
  {
    "compound": "COc1cccc2c3c([nH]c12)C=NCC3",
    "system tested": "5-hydroxytryptamine receptor 2A (Rattus norvegicus, UniProt P14842)",
    "category label": "HIGH"
  }
]

====

system tested: Serotonin 3 (5-HT3) receptor
assay: Binding affinity towards 5-HT3 receptor
pKi: −log10 of the molar value.
experimental readout: pKi

[
  {
    "chemical smiles": "COc1ccc2c(c1)[nH]c1c(C)nccc12",
    "endpoint value": "< 5.00"
  },
  {
    "chemical smiles": "COc1ccc2c3c([nH]c2c1)CNCC3",
    "endpoint value": "< 5.00"
  },
  {
    "chemical smiles": "CC1=NCCc2c1[nH]c1ccccc21",
    "endpoint value": "< 5.00"
  },
  {
    "chemical smiles": "COc1ccc2[nH]c3c(c2c1)CCN=C3C",
    "endpoint value": "< 5.00"
  }
]

====

system tested: 5-hydroxytryptamine receptor 2A (Rattus norvegicus, UniProt P14842)
assay: Binding affinity towards cloned rat Inhibition of binding towards 5-hydroxytryptamine 2A receptor at 100 nM concentration was determined using [3H]DOB as radioligand
pKi: −log10 of the molar value.

[
  {
    "chemical smiles": "C1=NCCc2c1[nH]c1ccccc21",
    "pKi": 5.67
  }
]

====

pKi values recorded for Beta-1 adrenergic receptor (Homo sapiens)
pKi: −log10 of the molar value.

[
  {
    "chemical smiles": "COc1ccc2c3c([nH]c2c1)CNCC3",
    "pKi": "< 5.00"
  },
  {
    "chemical smiles": "COc1ccc2c(c1)[nH]c1c(C)nccc12",
    "pKi": "< 5.00"
  }
]

====

Listing of recorded pKi by entry.
system tested: 5-hydroxytryptamine receptor 5A (Homo sapiens)
Sequence (P47898 whole entry): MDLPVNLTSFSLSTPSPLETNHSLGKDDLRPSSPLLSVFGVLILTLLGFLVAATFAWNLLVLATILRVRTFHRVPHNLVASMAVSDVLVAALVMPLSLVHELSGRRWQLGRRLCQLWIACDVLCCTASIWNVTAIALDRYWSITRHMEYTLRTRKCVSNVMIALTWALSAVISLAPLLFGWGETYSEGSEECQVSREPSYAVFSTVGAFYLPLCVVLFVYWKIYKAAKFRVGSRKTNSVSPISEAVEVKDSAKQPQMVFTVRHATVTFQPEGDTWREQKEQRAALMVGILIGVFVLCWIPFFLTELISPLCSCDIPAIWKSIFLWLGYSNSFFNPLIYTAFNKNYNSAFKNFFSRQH
pKi: −log10 of the molar value.

[
  {
    "compound": "COc1ccc2c(c1)[nH]c1c(C)nccc12 [HARMINE]",
    "pKi": "< 5.00"
  },
  {
    "compound": "CC1=NCCc2c1[nH]c1ccccc21",
    "pKi": 6.07
  },
  {
    "compound": "COc1ccc2[nH]c3c(c2c1)CCN=C3C",
    "pKi": "< 5.00"
  },
  {
    "compound": "COc1ccc2c3c([nH]c2c1)CNCC3",
    "pKi": "< 5.00"
  }
]

====

system tested: 5-hydroxytryptamine receptor 2A (Rattus norvegicus)
assay: Binding affinity towards 5-hydroxytryptamine 2A receptor
Reported Ki values for the following compounds.

[
  {
    "chemical smiles": "COc1ccc2[nH]c3c(c2c1)CCN=C3C",
    "result units": "µM",
    "Ki": 5.6
  },
  {
    "chemical smiles": "COc1ccc2c3c([nH]c2c1)CNCC3",
    "result units": "µM",
    "Ki": 4.62
  },
  {
    "chemical smiles": "COc1ccc2c(c1)[nH]c1c(C)nccc12",
    "result units": "µM",
    "Ki": 7.79
  },
  {
    "chemical smiles": "CC1=NCCc2c1[nH]c1ccccc21",
    "result units": "µM",
    "Ki": 1.15
  }
]

====

Recorded Ki, one value per entry.
system tested: GABA-A receptor; anion channel
assay: Binding affinity towards GABA-A benzodiazepine receptor
Assay type: protein-complex assay, Rattus norvegicus

[
  {
    "compound": "COc1ccc2[nH]c3c(c2c1)CCN=C3C",
    "Ki": "> 10 µM"
  },
  {
    "compound": "CC1=NCCc2c1[nH]c1ccccc21",
    "Ki": "> 10 µM"
  },
  {
    "compound": "COc1ccc2c(c1)[nH]c1c(C)nccc12 [HARMINE]",
    "Ki": "> 10 µM"
  }
]

====

system tested: 5-hydroxytryptamine receptor 2A (Rattus norvegicus)
assay: Binding affinity towards cloned rat 5-hydroxytryptamine 2A receptor from fundus tissue was determined using [3H]mesulergine as radioligand
experimental readout: Ki (nM)

[
  {
    "chemical smiles": "CC(C)Oc1cccc2[nH]c3c(c12)CCN=C3",
    "system tested": "5-hydroxytryptamine receptor 2A (Rattus norvegicus)",
    "experimental readout": "Ki",
    "result units": "nM",
    "endpoint value": 1410
  }
]

====

system tested: UniProt P08909
Sequence (P08909 whole entry): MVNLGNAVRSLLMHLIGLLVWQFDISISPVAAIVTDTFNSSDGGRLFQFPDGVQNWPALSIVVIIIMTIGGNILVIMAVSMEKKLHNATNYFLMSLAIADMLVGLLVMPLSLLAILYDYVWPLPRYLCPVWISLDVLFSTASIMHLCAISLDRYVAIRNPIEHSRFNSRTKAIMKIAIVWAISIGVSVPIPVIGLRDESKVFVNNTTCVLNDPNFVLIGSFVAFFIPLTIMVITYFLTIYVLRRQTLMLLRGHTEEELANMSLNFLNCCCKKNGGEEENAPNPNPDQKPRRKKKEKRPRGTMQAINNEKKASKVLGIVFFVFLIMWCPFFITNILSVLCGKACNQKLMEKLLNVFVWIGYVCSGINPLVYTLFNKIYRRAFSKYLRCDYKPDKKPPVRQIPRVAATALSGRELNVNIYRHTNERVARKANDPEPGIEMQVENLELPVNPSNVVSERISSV
Field 'label' (enum: TRUE / FALSE). Set to TRUE when Ki is strictly under 1000 nM; else FALSE.

[
  {
    "chemical smiles": "Brc1ccc2c3c([nH]c2c1)C=NCC3",
    "category label": "FALSE"
  },
  {
    "chemical smiles": "COc1cccc2[nH]c3c(c12)CCNC3",
    "category label": "TRUE"
  },
  {
    "chemical smiles": "Brc1cccc2[nH]c3c(c12)CCN=C3",
    "category label": "TRUE"
  },
  {
    "chemical smiles": "Brc1ccc2[nH]c3c(c2c1)CCNC3",
    "category label": "TRUE"
  },
  {
    "chemical smiles": "Brc1cccc2c3c([nH]c12)C=NCC3",
    "category label": "TRUE"
  },
  {
    "chemical smiles": "COc1cccc2c3c([nH]c12)C=NCC3",
    "category label": "FALSE"
  },
  {
    "chemical smiles": "COc1cccc2c3c([nH]c12)CNCC3",
    "category label": "FALSE"
  },
  {
    "chemical smiles": "COc1ccc2[nH]c3c(c2c1)CCNC3",
    "category label": "FALSE"
  },
  {
    "chemical smiles": "Brc1ccc2[nH]c3c(c2c1)CCN=C3",
    "category label": "FALSE"
  },
  {
    "chemical smiles": "COc1ccc2[nH]c3c(c2c1)CCN=C3",
    "category label": "FALSE"
  },
  {
    "chemical smiles": "c1ccc2c3c([nH]c2c1)CNCC3",
    "category label": "FALSE"
  },
  {
    "chemical smiles": "Brc1cccc2c3c([nH]c12)CNCC3",
    "category label": "TRUE"
  },
  {
    "chemical smiles": "Brc1cccc2[nH]c3c(c12)CCNC3",
    "category label": "TRUE"
  },
  {
    "chemical smiles": "Brc1ccc2c3c([nH]c2c1)CNCC3",
    "category label": "TRUE"
  }
]
